Here the recorded composite Z-score is given for each entry.
# ASSAY: small-molecule microarray binders of probe aXIP, primary screen, biochemical, NeuroSMM set, 635/667 nm fluorescence (AID 1119);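 further: probe is the protein aXip251-270 applied at 1 µg/mL to compound-printed slides; binding of probe to printed compounds measured as 667 nm fluorescence plus signal to noise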
# ASSAY CONTEXT: higher = more signal, called active from +8 up or from −8 down
// no unit string in output, number only

Here is how some compounds turned out for composite Z-score.
COMPOUND	composite Z-score
CN1C(=O)C2C=CC(C(O)C#Cc3ccccc3)N(N3CCCCC3)C2C1=O (stereo not given)	1.04
O=C1C2C=CC(C(O)c3cc(C(F)(F)F)cc(C(F)(F)F)c3)N(n3cnnc3)C2C(=O)N1Cc1ccccc1 (stereo not given)	-0.0461
CN1C(=O)C2C=CC(C(O)c3ccc([N+](=O)[O-])cc3)N(N3CCCCC3)C2C1=O (stereo not given)	-0.0829
COCC(=C=CC[C@@H](O)c1cccc(OCCO)c1)C[C@@H](O)c1ccccn1	0.745
COc1ccc(C(=O)Nc2ccc(CN3C(=O)[C@]4(O[C@H](CCO)[C@@H]([Si](C)(C)c5ccc(OC)cc5)[C@@H]4C)c4ccccc43)cc2)cc1	0.377

stdin: Please list composite Z-score recorded for the compound C=CCOC(=O)[C@H]1[C@@H]2C(=O)O[C@@H](c3ccccc3)[C@@H](c3ccccc3)N2[C@@H](c2ccc(OCCOC(=O)[C@H]3C[C@H]4C(=O)N[C@@H](CCCC[N+](C)(C)C)C(=O)N4[C@H]3c3ccc(O)cc3)cc2)[C@]12C(=O)Nc1ccc(I)cc12
stdout: 1.88

stdin: For the compound COCCOC(=O)N1C(=O)[C@@]2(c3ccccc31)[C@H](c1ccc(O)cc1)N1[C@H](c3ccccc3)[C@H](c3ccccc3)OC(=O)[C@H]1[C@@H]2C(=O)Nc1nc2ccccc2s1 , give its reported composite Z-score.
stdout: -0.434

stdin: Fill in reported composite Z-score for this entry: NC(=O)NCC#Cc1ccc2c(c1)[C@]1(C(=O)N2)[C@H](c2ccccc2OCCO)N2[C@H](c3ccccc3)[C@H](c3ccccc3)OC(=O)[C@H]2[C@@H]1C(=O)Nc1nc2ccccc2s1
stdout: 0.105

stdin: Supply recorded composite Z-score for C=C(COC)/C(=C/C[C@@H](OC(=O)c1ccncc1)c1ccc(CO)o1)c1cc(C(=O)OC)ccc1OC here.
stdout: -0.0882
